Study Target: human serum albumin (HSA) (Homo sapiens)
Sequence (P02768 25-609): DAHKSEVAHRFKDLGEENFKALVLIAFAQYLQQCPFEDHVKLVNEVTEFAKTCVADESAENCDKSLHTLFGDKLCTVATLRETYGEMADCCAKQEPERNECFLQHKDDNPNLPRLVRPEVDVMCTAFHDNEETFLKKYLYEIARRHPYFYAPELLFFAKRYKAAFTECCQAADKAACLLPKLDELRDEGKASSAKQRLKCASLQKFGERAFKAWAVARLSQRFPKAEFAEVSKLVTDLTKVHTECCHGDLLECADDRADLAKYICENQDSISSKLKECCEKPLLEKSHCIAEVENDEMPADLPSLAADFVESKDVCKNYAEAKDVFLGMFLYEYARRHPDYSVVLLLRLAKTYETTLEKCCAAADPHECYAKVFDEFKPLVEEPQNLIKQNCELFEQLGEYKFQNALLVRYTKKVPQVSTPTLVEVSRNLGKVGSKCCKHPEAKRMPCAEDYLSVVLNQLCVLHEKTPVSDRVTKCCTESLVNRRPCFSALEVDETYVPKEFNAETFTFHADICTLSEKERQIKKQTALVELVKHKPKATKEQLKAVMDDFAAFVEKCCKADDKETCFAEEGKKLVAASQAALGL
Assay Explanation: fluorescence anisotropy titration of compound […]) with protein, Langmuir isotherm fit
pKd: −log10 of the molar value.
Observation Type: pKd

> print(dat)
                            compound.string  observation.type   val
1  COC(=O)CCNC(=O)c1ccc2cc(N(CC(=O)OC(C)(C)C)c3ccc(OC)cc3)ccc2c1               pKd  5.69

* * *

Study Target: bovine serum albumin (BSA) (Bos taurus)
Sequence (P02769 25-607): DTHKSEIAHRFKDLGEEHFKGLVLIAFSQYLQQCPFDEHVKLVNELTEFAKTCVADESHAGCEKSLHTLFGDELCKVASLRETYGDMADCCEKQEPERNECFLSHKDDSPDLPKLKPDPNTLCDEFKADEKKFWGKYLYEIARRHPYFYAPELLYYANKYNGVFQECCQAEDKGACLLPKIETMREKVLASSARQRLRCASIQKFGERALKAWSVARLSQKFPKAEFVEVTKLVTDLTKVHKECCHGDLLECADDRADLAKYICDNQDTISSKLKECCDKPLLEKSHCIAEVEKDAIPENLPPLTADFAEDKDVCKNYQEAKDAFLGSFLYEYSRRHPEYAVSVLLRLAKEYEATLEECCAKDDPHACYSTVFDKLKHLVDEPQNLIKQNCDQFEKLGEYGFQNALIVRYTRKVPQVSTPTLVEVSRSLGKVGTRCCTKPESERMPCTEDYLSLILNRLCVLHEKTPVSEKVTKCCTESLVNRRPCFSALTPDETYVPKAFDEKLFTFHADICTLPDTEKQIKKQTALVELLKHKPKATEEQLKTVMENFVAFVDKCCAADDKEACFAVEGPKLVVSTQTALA
Assay Explanation: fluorescence anisotropy titration of compound […]) with protein, Langmuir isotherm fit
Observation Type: Kd (µM)

> print(dat)
                            compound.string                             study.target  observation.type   val
1  COC(=O)CCNC(=O)c1ccc2cc(N(CC(=O)OC(C)(C)C)c3ccc(OC)cc3)ccc2c1  bovine serum albumin (BSA) (Bos taurus)                Kd  1.93

From: paper PMC4582037
